Origin of the recorded values: patent US20250230147A1

- target-of-assay: c-Cbl (Homo sapiens (Human), UniProt P22681)
- Sequence (P22681 47-435): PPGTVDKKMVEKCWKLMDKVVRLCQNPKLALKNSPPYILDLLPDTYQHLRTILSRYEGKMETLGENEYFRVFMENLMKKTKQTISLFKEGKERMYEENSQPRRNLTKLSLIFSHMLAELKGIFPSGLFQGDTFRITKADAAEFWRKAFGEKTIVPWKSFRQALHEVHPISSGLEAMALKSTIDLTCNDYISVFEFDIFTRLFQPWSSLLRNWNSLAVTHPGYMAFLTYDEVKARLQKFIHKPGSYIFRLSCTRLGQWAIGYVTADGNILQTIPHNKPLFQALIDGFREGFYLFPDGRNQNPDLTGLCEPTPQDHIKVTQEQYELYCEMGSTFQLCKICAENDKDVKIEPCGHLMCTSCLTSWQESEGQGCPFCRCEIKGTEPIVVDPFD
- assay-name: C-Cbl LCK Ub TR-FRET assay (c-cbl Lck HTRF)
- Assay type: biochemical
- conditions: C-cbl Lck HTRF IC50 relative to Cbl-b Lck HTRF IC50
measured-parameter: (fold-selectivity)

// query (fold-selectivity) value for entry "Cn1cnnc1CC1(c2cc(NCC3CCOCC3)nc(N3Cc4c(cc(CNC5(C)CCC5)cc4C(F)(F)F)C3=O)c2)CCC1"
(1.0x)

// query (fold-selectivity) value for entry "Cn1cnnc1CC1(c2cccc(N3Cc4c(cc([C@H](N)C5CC5)cc4C(F)(F)F)C3=O)c2)CC(F)(F)C1"
(1.0x)
